EXPERIMENTAL PROTOCOL: Aqueous solubility of BBIG salts (gravimetric / UV spectroscopy)
RECORDED CONDITIONS: 25 °C, water, thermodynamic from solid
OBSERVED PROPERTY: solubility at 48 h

[[record]]
chemical_smiles = "Cl.Cl.N=C(N)N/N=C/c1ccc(/C=N/NC(=N)N)cc1"
endpoint_result = "63 mM"

